Tested on: LOX IMVI melanoma
Assay: NCI-60 one-dose screen, 48 h (100 = growth as untreated, 0 = no growth, -100 = all killed)
Settings: 10 µM unless noted
About 83,000 compounds went through this panel and 20% of them were active in at least one assay; those are over-represented in the sample as a whole.
Quick rule: growth of at least 50% means TRUE, below that means FALSE.

Say whether Oc1ccc(CSc2nnc(-c3ccc(Br)cc3)n2-c2ccccc2)c2cccnc12 shows growth of 50% or more.
FALSE

Say whether O=C1C[C@@H](c2ccccc2)Oc2c(Cc3ccccc3O)c(O)c(Cc3cc(Cc4cc(Cc5ccccc5O)ccc4O)ccc3O)c(O)c21 shows growth of 50% or more.
TRUE

Say whether C=C1C(=O)O[C@@H]2C[C@@H](C)[C@H](OC)CC(=O)[C@](C)(OC(C)=O)C[C@H](OC(=O)/C(C)=C\C)[C@@H]12 shows growth of 50% or more.
TRUE

Say whether O=c1cc(-c2ccccc2)nc2sc(-c3c[nH]c4ccc(F)cc34)nn12 shows growth of 50% or more.
TRUE

Say whether C=CCn1c(SCC(=O)Nc2cccc(C(=O)/C=C/c3cccc([N+](=O)[O-])c3)c2)nc2ccccc2c1=O shows growth of 50% or more.
TRUE

----------
System: PC-3 prostate
Test: NCI-60 one-dose screen, 48 h (100 = growth as untreated, 0 = no growth, -100 = all killed)
Details: 10 µM unless noted
The panel holds about 83,000 compounds, 20% with a hit somewhere; the sample as a whole holds those more often. Activity calls are given as the source filed them. Rule for the calls: active = growth percent below 10; inactive = the rest.
Overview of recorded growth for various compounds

Examples with their reported growth follow.
>>> result("CN1CCN(c2ccc(C(=O)/C=C/c3ccc(Cl)c(C(F)(F)F)c3)cc2)CC1")
"43.4% (inactive)"
>>> result("O=C1[C@H]2Cc3c([nH]c4ccccc34)[C@H](c3ccc(Cl)cc3)N2C(=O)CN1C1CCN(Cc2c(Cl)cccc2Cl)CC1")
"49.3% (inactive)"
>>> result("C#CCOc1ccc(/C=N/Nc2nc(-c3cc4cc(Br)cc(Br)c4oc3=O)cs2)cc1")
"88.1% (inactive)"
>>> result("CS(=O)(=O)c1nccc(-c2c(-c3ccc(F)c(OCc4ccc(F)cc4)c3)nc3sccn23)n1")
"-17.3% (active)"
>>> result("Cn1cc(-c2nn3c(=O)cc(-c4ccccc4)nc3s2)c2cc(F)ccc21")
"34.8% (inactive)"

Now, please, on to the next compound.
Form: Entry = COc1ccc(-c2nnc(SCc3ccc(O)c4ncccc34)o2)cc1 | System = PC-3 prostate | growth = ____
26.2% (inactive)

----------
Test system: HOP-92 NSCLC
Experiment: NCI-60 one-dose screen, 48 h (100 = growth as untreated, 0 = no growth, -100 = all killed)
Conditions: 10 µM unless noted
Compounds without any hit were thinned out: in the full panel of roughly 83,000, 20% have a hit.
measure-name: growth (%)
The answer is to be given in %; state only the numeric part.

Examples with their reported growth follow.
>>> recorded_number("O=C(/C=C1\\C=CN(CCCCCCF)c2ccccc21)n1ccc2ccccc21")
70.3
>>> recorded_number("O=C1/C(=C/c2ccc([N+](=O)[O-])cc2)SC(=Nc2ccccc2)N1Nc1ccccc1")
108
>>> recorded_number("Cc1ccccc1/C=C/c1nn2c(-c3ccoc3C)nnc2s1")
93.9
>>> recorded_number("C=C1C(=O)O[C@@H]2C[C@@H](C)[C@H](OC)CC(=O)[C@](C)(OC(C)=O)C[C@H](OC(=O)/C(C)=C\\C)[C@@H]12")
85.1
>>> recorded_number("CCN1C(=O)N(CC)C2SC(N/N=C/C=C/c3ccccc3OC)=NC21 (stereo unspecified)")
39.1

What value of growth has been reported for the following compound? CC(C)=CCc1c2c(c(O)c3c1O[C@]14C(=C[C@@H]5C[C@H]1C(C)(C)O[C@@]4(C/C=C(/C)C(=O)O)C5=O)C3=O)CC(O)C(C)(C)O2 (stereo partly specified)
-8.8

What value of growth has been reported for the following compound? Cn1c2ccccc2c2c3c(c4c5ccc(Br)cc5oc4c21)C(=O)N(O)C3=O
81.6

What value of growth has been reported for the following compound? CC(=O)c1ccc(NC(=O)COc2ccc(C3SCC(=O)N3c3ccc(Br)cc3)cc2)cc1 (stereo unspecified)
84.4

What value of growth has been reported for the following compound? C#C[C@]1(O)CC[C@H]2[C@@H]3CC=C4c5sc(-c6ccccn6)nc5CC[C@]4(C)[C@H]3CC[C@@]21C
110

What value of growth has been reported for the following compound? Cc1cccc(NC(c2cc3cccc4ccc5cccc2c5c43)c2nnnn2C(C)(C)C)c1C (stereo unspecified)
90.2

What value of growth has been reported for the following compound? N#C/C(=C\c1ccc(N2CCCCC2)cc1)C(=O)Nc1sc2c(c1C#N)CCC2
89.4
